# Lookup of reported pIC50 keyed by entry
Target: Human Ketohexokinase (KHK-A) (Homo sapiens)
Construct: Recombinant Human Ketohexokinase, Met1Val298, with C terminal 6His tag; 6His (C)
Sequence (P50053 1-298 isoform P50053-2): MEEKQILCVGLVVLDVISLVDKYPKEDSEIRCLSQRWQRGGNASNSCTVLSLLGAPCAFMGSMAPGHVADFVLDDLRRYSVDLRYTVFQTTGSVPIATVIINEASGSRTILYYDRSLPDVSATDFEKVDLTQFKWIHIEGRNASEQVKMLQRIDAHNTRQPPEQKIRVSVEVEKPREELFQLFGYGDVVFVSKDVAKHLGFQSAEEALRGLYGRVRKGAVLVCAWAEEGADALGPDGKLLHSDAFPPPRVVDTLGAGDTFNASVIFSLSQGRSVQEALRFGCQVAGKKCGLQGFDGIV
Assay: Transcreener Kinase ADP2 FP assay, inhibition of human KHK-A
Settings: recombinant human KHK-A 17.5 nM, 0.3 mM ATP, 7 mM fructose, 30 min pre-incubation, 60 min at 30° C.
pIC50: −log10 of the molar value.

| molecule | systemUnderTest | pIC50 |
| --- | --- | --- |
| Cc1c(N2C[C@@H]3[C@H](C2)[C@H]3CS(=O)O)nc(N2CC[C@@H]2C)nc1C(F)(F)F [Example 6] | Human Ketohexokinase (KHK-A) (Homo sapiens) | 7.11 |
| C[C@H]1CCN1c1nc(N2C[C@@H]3[C@H](C2)[C@H]3CS(=O)O)cc(C(F)(F)F)n1 [Example 2] | Human Ketohexokinase (KHK-A) (Homo sapiens) | 6.13 |
